The compounds listed here are annotated with their Heart: Blood Ratio.
# Tested on: vesamicol receptor
# assay-method-text: Blocking experiments: inhibition of radiotracer accumulation in the rat by coadministered compound
# Format: in vivo, rat (male Wistar)
# recorded-conditions: rat, iv, 60 min, radiotracer only (control)
Enter the number alone.

* OC(Cc1ccc([125I])cc1)CN1CCC(c2ccccc2)CC1 (single isomer, unassigned; (+)) [(+)-4-[^125 l]HIPP] | 39.8
* OC(Cc1ccc([125I])cc1)CN1CCC(c2ccccc2)CC1 (single isomer, unassigned; (-)) [(-)-4-[^125 l]HIPP] | 36.5
* OC(Cc1cccc([125I])c1)CN1CCC(c2ccccc2)CC1 (single isomer, unassigned; (+)) [(+)-[^125 l]12] | 3.96

Return value of Heart: Blood Ratio for input OC(Cc1cccc([125I])c1)CN1CCC(c2ccccc2)CC1 (single isomer, unassigned; (-)) [(-)-[^125 l]12] , no commentary.
1.57

For the compound OC(CN1CCC(c2ccccc2)CC1)c1ccc([125I])cc1 (single isomer, unassigned; (-)) [(-)-[^125 l]13] , give its reported Heart: Blood Ratio.
1.31

Provide only the value of recorded Heart: Blood Ratio for OC(CN1CCC(c2ccccc2)CC1)c1ccc([125I])cc1 (single isomer, unassigned; (+)) [(+)-[^125 l]13]
4.41

----------
Reported Brain: Blood Ratio is given for each of the following compounds.
# assay-method-text: Tissue distribution (biodistribution) of radioiodinated compound in the rat
# recorded-conditions: rat, iv, 180 min

Below, 5 compounds whose answers are already recorded.
- OC(CN1CCC(c2ccccc2)CC1)c1ccc([125I])cc1 (single isomer, unassigned; (+)) [(+)-[^125 l]13]: 37.4
- OC(Cc1cccc([125I])c1)CN1CCC(c2ccccc2)CC1 (single isomer, unassigned; (+)) [(+)-[^125 l]12]: 7.2
- OC(Cc1ccc([125I])cc1)CN1CCC(c2ccccc2)CC1 (single isomer, unassigned; (-)) [(-)-4-[^125 l]HIPP]: 69.7
- OC(Cc1ccc([125I])cc1)CN1CCC(c2ccccc2)CC1 (single isomer, unassigned; (+)) [(+)-4-[^125 l]HIPP]: 44.8
- OC(Cc1cccc([125I])c1)CN1CCC(c2ccccc2)CC1 (single isomer, unassigned; (-)) [(-)-[^125 l]12]: 2.6

In the following, a different compound is considered.
Output Brain: Blood Ratio of OC(CN1CCC(c2ccccc2)CC1)c1ccc([125I])cc1 (single isomer, unassigned; (-)) [(-)-[^125 l]13]
5.5

----------
Recorded tissue uptake at 5 min by entry
# assay-method-text: Tissue distribution (biodistribution) of radioiodinated compound in the rat
# recorded-conditions: rat, muscle, iv, radioactivity in muscle, 5 min
Write the numeric value and follow it with the unit.

Check out these entries, answers already filled in.
• OC(Cc1ccc([125I])cc1)CN1CCC(c2ccccc2)CC1 (single isomer, unassigned; (+)) [(+)-4-[^125 l]HIPP] = 0.24 %ID/g
• OC(Cc1cccc([125I])c1)CN1CCC(c2ccccc2)CC1 (single isomer, unassigned; (+)) [(+)-[^125 l]12] = 0.27 %ID/g

Give recorded tissue uptake at 5 min. OC(CN1CCC(c2ccccc2)CC1)c1ccc([125I])cc1 (single isomer, unassigned; (+)) [(+)-[^125 l]13]
0.33 %ID/g
